# STUDY_TARGET: EphB4 (Homo sapiens)
# Sequence (P54760 16-987): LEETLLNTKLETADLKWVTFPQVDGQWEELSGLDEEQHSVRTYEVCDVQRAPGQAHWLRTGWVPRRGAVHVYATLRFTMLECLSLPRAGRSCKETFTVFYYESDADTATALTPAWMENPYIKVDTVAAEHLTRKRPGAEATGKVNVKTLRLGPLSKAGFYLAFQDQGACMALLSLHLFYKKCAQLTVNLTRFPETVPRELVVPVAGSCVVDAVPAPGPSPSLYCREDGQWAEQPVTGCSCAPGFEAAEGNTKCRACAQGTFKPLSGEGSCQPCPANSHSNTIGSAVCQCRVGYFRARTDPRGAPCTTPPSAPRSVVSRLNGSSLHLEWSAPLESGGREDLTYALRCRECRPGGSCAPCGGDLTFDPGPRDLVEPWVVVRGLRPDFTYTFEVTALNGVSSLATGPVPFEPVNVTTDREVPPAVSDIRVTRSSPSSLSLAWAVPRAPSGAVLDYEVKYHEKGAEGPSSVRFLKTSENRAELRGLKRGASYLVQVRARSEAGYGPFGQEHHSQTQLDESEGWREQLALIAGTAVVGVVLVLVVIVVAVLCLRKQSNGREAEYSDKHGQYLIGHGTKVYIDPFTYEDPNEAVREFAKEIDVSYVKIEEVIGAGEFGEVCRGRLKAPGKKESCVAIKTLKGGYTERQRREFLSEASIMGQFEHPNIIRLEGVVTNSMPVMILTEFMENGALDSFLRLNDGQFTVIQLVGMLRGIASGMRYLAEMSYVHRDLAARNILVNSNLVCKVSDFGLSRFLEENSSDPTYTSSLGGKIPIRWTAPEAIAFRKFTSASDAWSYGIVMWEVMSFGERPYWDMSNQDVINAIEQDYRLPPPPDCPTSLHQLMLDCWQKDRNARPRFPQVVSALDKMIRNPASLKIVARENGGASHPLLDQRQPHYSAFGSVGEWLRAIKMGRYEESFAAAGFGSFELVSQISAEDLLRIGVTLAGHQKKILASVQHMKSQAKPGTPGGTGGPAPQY
# RUN_DESCRIPTION: FRET based enzymatic assay (Z'-LYTE Kinase Assay Kit-Tyr 1 Peptide)
# Format: biochemical
# CONDITION_CONTEXT: EphB4 25 ng/µL, ATP 125 µM, room temperature, 2 h
RECORDED_METRIC: pIC50
// field semantics: pIC50 = negative decimal log of concentration (mol/L)

Enquiry: For the molecule shown here, `Cc1ccc(O)cc1-n1c(N)c(C(N)=O)c2nc3ccccc3nc21` , give the reported pIC50.
Return: 7.96

* * *

# RUN_DESCRIPTION: In vivo pharmacokinetics in blood plasma
# CONDITION_CONTEXT: mouse; male CD-1 mice, PO 5 mg/kg, plasma; read-out: T1/2 (min, PO)
RECORDED_METRIC: half-life (h)
Give just the numeric value; h need not be written.

Enquiry: For the compound shown here, `Cc1ccc(O)cc1-n1c(N)c(C(N)=O)c2nc3ccccc3nc21` , give the reported half-life.
Return: 1.67

* * *

# RUN_DESCRIPTION: In vivo pharmacokinetics in blood plasma
# CONDITION_CONTEXT: mouse; male CD-1 mice, PO 5 mg/kg, plasma
RECORDED_METRIC: Cmax (ng/mL)
Give just the numeric value; ng/mL need not be written.

Enquiry: For the compound shown here, Cc1ccc(O)cc1-n1c(N)c(C(N)=O)c2nc3ccccc3nc21 [Compound 2] , give the reported Cmax.
Return: 240

* * *

# RUN_DESCRIPTION: In vivo pharmacokinetics in blood plasma
# CONDITION_CONTEXT: mouse; male CD-1 mice, PO 5 mg/kg, plasma; read-out: Tmax (min, PO) (converted)
RECORDED_METRIC: Tmax (min)
Give just the numeric value; min need not be written.

Enquiry: For the compound shown here, Cc1ccc(O)cc1-n1c(N)c(C(N)=O)c2nc3ccccc3nc21 [Compound 2] , give the reported Tmax.
Return: 30
